Test system: TZM
test summary: Cytotoxicity against human TZM-bl cells incubated for 48 hrs by absorbance based assay
Format: toxicity, cell-based
Binary call on CC50 with cut-off 60 µM: strictly below means Y, and equality or higher means N.

CCOP(=O)(COc1ccc(C[C@H](NC(=O)O[C@H]2CO[C@H]3OCC[C@H]32)[C@H](O)CN(CC(CC)CC)S(=O)(=O)c2ccc3c(c2)OCO3)cc1)OCC = N
CCOP(=O)(COc1ccc(C[C@H](NC(=O)O[C@H]2CO[C@H]3OCC[C@H]32)[C@H](O)CN(CC(CC)CC)S(=O)(=O)c2ccc3ncsc3c2)cc1)OCC = Y
CCOP(=O)(COc1ccc(C[C@H](NC(=O)O[C@H]2CO[C@H]3OCC[C@H]32)[C@H](O)CN(CC(C)C)S(=O)(=O)c2ccc3ncsc3c2)cc1)OCC = N
CCOP(=O)(COc1ccc(C[C@H](NC(=O)O[C@H]2CO[C@H]3OCC[C@H]32)[C@H](O)CN(CC(C)C)S(=O)(=O)c2ccc3c(c2)OCO3)cc1)OCC = N
CCOP(=O)(COc1ccc(C[C@H](NC(=O)O[C@H]2CO[C@H]3OCC[C@H]32)[C@H](O)CN(C[C@@H](C)CC)S(=O)(=O)c2ccc(N)cc2)cc1)OCC = N

Item CCOP(=O)(COc1ccc(C[C@H](NC(=O)O[C@H]2CO[C@H]3OCC[C@H]32)[C@H](O)CN(CC(C)C)S(=O)(=O)c2ccc(OC)cc2)cc1)OCC : CC50 beneath 60 µM, strictly? N

Item CCOP(=O)(COc1ccc(C[C@H](NC(=O)O[C@H]2CO[C@H]3OCC[C@H]32)[C@H](O)CN(CC(CC)CC)S(=O)(=O)c2ccc(N)cc2)cc1)OCC : CC50 beneath 60 µM, strictly? N

Item CCOP(=O)(COc1ccc(C[C@H](NC(=O)O[C@H]2CO[C@H]3OCC[C@H]32)[C@H](O)CN(C[C@@H](C)CC)S(=O)(=O)c2ccc(OC)cc2)cc1)OCC : CC50 beneath 60 µM, strictly? N

Item CCOP(=O)(COc1ccc(C[C@H](NC(=O)O[C@H]2CO[C@H]3OCC[C@H]32)[C@H](O)CN(C[C@@H](C)CC)S(=O)(=O)c2ccc3ncsc3c2)cc1)OCC : CC50 beneath 60 µM, strictly? Y

Item CCOP(=O)(COc1ccc(C[C@H](NC(=O)O[C@H]2CO[C@H]3OCC[C@H]32)[C@H](O)CN(C[C@@H](C)CC)S(=O)(=O)c2ccc3c(c2)OCO3)cc1)OCC : CC50 beneath 60 µM, strictly? N

Item CCOP(=O)(COc1ccc(C[C@H](NC(=O)O[C@H]2CO[C@H]3OCC[C@H]32)[C@H](O)CN(CC(CC)CC)S(=O)(=O)c2ccc(CO)cc2)cc1)OCC : CC50 beneath 60 µM, strictly? N

* * *

test summary: in vitro
condition set: human
We begin with a simple list: items and their reported selectivity ratio.
Enter the number alone.

Below, each entry is followed by its recorded selectivity ratio result.
CCOP(=O)(COc1ccc(C[C@H](NC(=O)O[C@H]2CO[C@H]3OCC[C@H]32)[C@H](O)CN(CC(CC)CC)S(=O)(=O)c2ccc(N)cc2)cc1)OCC = 2.75
CCOP(=O)(COc1ccc(C[C@H](NC(=O)O[C@H]2CO[C@H]3OCC[C@H]32)[C@H](O)CN(C[C@@H](C)CC)S(=O)(=O)c2ccc(OC)cc2)cc1)OCC = 3.45
CCOP(=O)(COc1ccc(C[C@H](NC(=O)O[C@H]2CO[C@H]3OCC[C@H]32)[C@H](O)CN(C[C@@H](C)CC)S(=O)(=O)c2ccc(N)cc2)cc1)OCC = 4.02
CCOP(=O)(COc1ccc(C[C@H](NC(=O)O[C@H]2CO[C@H]3OCC[C@H]32)[C@H](O)CN(CC(C)C)S(=O)(=O)c2ccc(OC)cc2)cc1)OCC = 4.24
CCOP(=O)(COc1ccc(C[C@H](NC(=O)O[C@H]2CO[C@H]3OCC[C@H]32)[C@H](O)CN(CC(C)C)S(=O)(=O)c2ccc3c(c2)OCO3)cc1)OCC = 12
CCOP(=O)(COc1ccc(C[C@H](NC(=O)O[C@H]2CO[C@H]3OCC[C@H]32)[C@H](O)CN(C[C@@H](C)CC)S(=O)(=O)c2ccc3ncsc3c2)cc1)OCC = 2.32

Determine from records and report selectivity ratio for CCOP(=O)(COc1ccc(C[C@H](NC(=O)O[C@H]2CO[C@H]3OCC[C@H]32)[C@H](O)CN(CC(CC)CC)S(=O)(=O)c2ccc3ncsc3c2)cc1)OCC 2.06

Determine from records and report selectivity ratio for CCOP(=O)(COc1ccc(C[C@H](NC(=O)O[C@H]2CO[C@H]3OCC[C@H]32)[C@H](O)CN(CC(CC)CC)S(=O)(=O)c2ccc(CO)cc2)cc1)OCC 4.06

Determine from records and report selectivity ratio for CCOP(=O)(COc1ccc(C[C@H](NC(=O)O[C@H]2CO[C@H]3OCC[C@H]32)[C@H](O)CN(CC(C)C)S(=O)(=O)c2ccc3ncsc3c2)cc1)OCC 4.33

* * *

Test system: Human immunodeficiency virus 1
test summary: Antiviral activity against drug-resistant HIV-1 harboring protease L10F/I15V/M46I/I47V/I50V/F53L/A71V/V82I/I84V/L89T mutant infected in human TZM-bl cells using virus particles harvested from 24 hrs drug-treated human CEM cells infected with virus assessed as reduction in viral infection measured after 48 hrs in TZM-bl cells by Firefly luciferase based assay
Format: functional, organism-based
condition set: Human immunodeficiency virus 1, TZM-bl
We begin with a simple list: items and their reported pEC50.
Please note pEC50 is a logarithmic value: minus log10 of concentration in mol/L. Answer with that number alone.

Below, each entry is followed by its recorded pEC50 result.
CC(C)CN(C[C@@H](O)[C@H](Cc1ccccc1)NC(=O)O[C@H]1CO[C@H]2OCC[C@H]21)S(=O)(=O)c1ccc(N)cc1 = 5.73
CCC(CC)CN(C[C@@H](O)[C@H](Cc1ccccc1)NC(=O)O[C@H]1CO[C@H]2OCC[C@H]21)S(=O)(=O)c1ccc(OC)cc1 = 4.66

// moving on: another record for pEC50
Specify the recorded pEC50 for CCC(CC)CN(C[C@@H](O)[C@H](Cc1ccccc1)NC(=O)O[C@H]1CO[C@H]2OCC[C@H]21)S(=O)(=O)c1ccc2c(c1)OCO2 , system: Human immunodeficiency virus 1. 5.19

* * *

We begin with a simple list: items and their reported EC50.
Test system: Human immunodeficiency virus 1
test summary: Antiviral activity against drug-resistant HIV-1 harboring Gag mutation/protease I13V/G16E/V32I/L33F/K45I/M46I/A71V/L76V/V82F/I84V mutant infected in human TZM-bl cells using virus particles harvested from 24 hrs drug-treated human CEM cells infected with virus assessed as reduction in viral infection measured after 48 hrs in TZM-bl cells by Firefly luciferase based assay
Assay type: functional, organism-based
condition set: Human immunodeficiency virus 1, TZM-bl
The reply should be a number in nM, with the unit left off.

CCOP(=O)(COc1ccc(C[C@H](NC(=O)O[C@H]2CO[C@H]3OCC[C@H]32)[C@H](O)CN(CC(CC)CC)S(=O)(=O)c2ccc(OC)cc2)cc1)OCC = 38

Determine from records and report EC50 for CCC(CC)CN(C[C@@H](O)[C@H](Cc1ccccc1)NC(=O)O[C@H]1CO[C@H]2OCC[C@H]21)S(=O)(=O)c1ccc(OC)cc1 140

* * *

We begin with a simple list: items and their reported Ki.
tested system: Protease (Human immunodeficiency virus 1, UniProt Q9YQ12, A71V/I50V)
Sequence (Q9YQ12 entry or part of it A71V/I50V): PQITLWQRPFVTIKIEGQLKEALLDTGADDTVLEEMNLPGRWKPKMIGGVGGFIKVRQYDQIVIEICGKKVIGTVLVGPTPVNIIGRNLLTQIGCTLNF
test summary: Binding affinity to drug-resistant HIV-1 protease I50V/A71V mutant expressed in Escherichia coli TAP-106 cells assessed as inhibition constant using a EDANS/DABCYL FRET-peptide substrate preincubated for 1 hr followed by substrate addition measured after 1 hr by fluorogenic assay

CCOP(=O)(COc1ccc(C[C@H](NC(=O)O[C@H]2CO[C@H]3OCC[C@H]32)[C@H](O)CN(CC(C)C)S(=O)(=O)c2ccc3ncsc3c2)cc1)OCC = < 5 pM
CCOP(=O)(COc1ccc(C[C@H](NC(=O)O[C@H]2CO[C@H]3OCC[C@H]32)[C@H](O)CN(CC(CC)CC)S(=O)(=O)c2ccc(CO)cc2)cc1)OCC = < 5 pM
CCOP(=O)(COc1ccc(C[C@H](NC(=O)O[C@H]2CO[C@H]3OCC[C@H]32)[C@H](O)CN(C[C@@H](C)CC)S(=O)(=O)c2ccc(N)cc2)cc1)OCC = < 5 pM
CCOP(=O)(COc1ccc(C[C@H](NC(=O)O[C@H]2CO[C@H]3OCC[C@H]32)[C@H](O)CN(C[C@@H](C)CC)S(=O)(=O)c2ccc3c(c2)OCO3)cc1)OCC = < 5 pM
CCOP(=O)(COc1ccc(C[C@H](NC(=O)O[C@H]2CO[C@H]3OCC[C@H]32)[C@H](O)CN(C[C@@H](C)CC)S(=O)(=O)c2ccc(OC)cc2)cc1)OCC = < 5 pM
CCOP(=O)(COc1ccc(C[C@H](NC(=O)O[C@H]2CO[C@H]3OCC[C@H]32)[C@H](O)CN(CC(CC)CC)S(=O)(=O)c2ccc3c(c2)OCO3)cc1)OCC = < 5 pM
CCOP(=O)(COc1ccc(C[C@H](NC(=O)O[C@H]2CO[C@H]3OCC[C@H]32)[C@H](O)CN(C[C@@H](C)CC)S(=O)(=O)c2ccc(CO)cc2)cc1)OCC = < 5 pM
CCOP(=O)(COc1ccc(C[C@H](NC(=O)O[C@H]2CO[C@H]3OCC[C@H]32)[C@H](O)CN(CC(C)C)S(=O)(=O)c2ccc(OC)cc2)cc1)OCC = < 5 pM

Determine from records and report Ki for CCOP(=O)(COc1ccc(C[C@H](NC(=O)O[C@H]2CO[C@H]3OCC[C@H]32)[C@H](O)CN(CC(CC)CC)S(=O)(=O)c2ccc3ncsc3c2)cc1)OCC < 5 pM

Determine from records and report Ki for CCOP(=O)(COc1ccc(C[C@H](NC(=O)O[C@H]2CO[C@H]3OCC[C@H]32)[C@H](O)CN(CC(CC)CC)S(=O)(=O)c2ccc(OC)cc2)cc1)OCC < 5 pM

Determine from records and report Ki for CCOP(=O)(COc1ccc(C[C@H](NC(=O)O[C@H]2CO[C@H]3OCC[C@H]32)[C@H](O)CN(CC(C)C)S(=O)(=O)c2ccc3c(c2)OCO3)cc1)OCC < 5 pM

Determine from records and report Ki for CCOP(=O)(COc1ccc(C[C@H](NC(=O)O[C@H]2CO[C@H]3OCC[C@H]32)[C@H](O)CN(CC(CC)CC)S(=O)(=O)c2ccc(N)cc2)cc1)OCC < 5 pM

Determine from records and report Ki for CCOP(=O)(COc1ccc(C[C@H](NC(=O)O[C@H]2CO[C@H]3OCC[C@H]32)[C@H](O)CN(C[C@@H](C)CC)S(=O)(=O)c2ccc3ncsc3c2)cc1)OCC < 5 pM
